- Tested on: SK-OV-3 ovarian
- TEST_METHOD_NOTES: NCI tumour cell line growth inhibition, 48 h; in the data active = GI50 below about 0.43 µM; inactive = the rest
Give one outcome, nothing more. List: Y (active), N (inactive)

Below, 8 compounds whose answers are already recorded.
• Cc1cc2nc3c4ccccc4n(CCN(C)C)c3nc2cc1C = N
• CCS/C(Nc1ccccc1)=C(\C#N)C(=O)N/N=C/c1ccc(Cl)cc1Cl = N
• ClC1=C(Cl)C(Cl)=C(Cl)C1=Cc1ccc(Cl)cc1 = N
• CN(NC(=O)CC(=O)NN(C)C(=S)c1ccc(Cl)cc1)C(=S)c1ccc(Cl)cc1 = N
• Brc1ccc(Br)nn1 = N
• CCOc1cc(/C=N\NC(=O)N/N=C/c2ccc(O)c(OCC)c2)ccc1O = N
• Cc1cccnc1CNC1CC(NCc2ncccc2C)CC(NCc2ncccc2C)C1 (configuration not stated) = N
• C=C(C)[C@@H]1CC[C@]2(C)[C@H](C=CC3=C4C[C@@](C)(CO)CC[C@]4(C)CC[C@]32C)[C@@]1(C)CCCN = N

Lookup: For this compound, state the assay outcome: `C=C1CO[C@@H]2C[C@@H]1CC/C(C)=C/CC/C(C)=C/CC[C@@]2(C)O`
Found: N

Lookup: For this compound, state the assay outcome: `O=C(/C=C/c1cccc(B(O)O)c1)c1cccc(B(O)O)c1`
Found: N

Lookup: For this compound, state the assay outcome: `Cc1c(N2C(=O)/C(=C\c3ccc(N(C)C)cc3)N=C2c2ccccc2)c(=O)n(-c2ccccc2)n1C`
Found: N

====

- Test system: SNB-78 CNS
- TEST_METHOD_NOTES: NCI tumour cell line growth inhibition, 48 h
VALUE_KIND: TGI

Example results:
* COC(=O)/C(=N\O)C(C(=O)C=C(C)C)C(=O)C(=O)Nc1ccccc1C (stereo unspecified) | > 100 µM
* NC(=O)CCC(NC(=O)C(F)(F)F)C(=O)O (stereo unspecified) | > 100 µM
* COc1ccc(/C(Cl)=C/c2ccc(Cl)c(Cl)c2)cc1 | 72.1 µM
* Nc1ccc(C(=O)NN2C(=O)C(Cl)C2c2cccc([N+](=O)[O-])c2)cc1 (stereo unspecified) | > 100 µM
* CC12C(=O)N(CCN)C(=O)C1C1c3ccccc3C2c2ccccc21 (stereo unspecified) | > 100 µM

Batch lookup, TGI per entry.
1. FC(F)(F)C1=NC(=NNc2nnc(-c3ccccc3)c(-c3ccccc3)n2)N=C(C(F)(F)F)C1
2. CO[C@@]12CC(=O)/C(=C(O)\C=C\c3ccccc3)C(=O)[C@]1(OC)Cc1ccccc1O2
3. CCc1oc2ccc(OC)c3c2c1C=CC=C3
4. CCCCCC(=O)Cc1cc(OC)cc2c1C(=O)Oc1cc(O)c(C(=O)O)c(CC(=O)CCCCC)c1O2
5. O=C1C=C(Nc2ccccc2C(=O)CC(=O)C(=O)Nc2ccc(Cl)c(Cl)c2)c2ccccc2C1=O
6. CC1=NN(c2ccccc2)C(=O)C1=C1SCCCS1

Found:
> 100 µM
> 100 µM
> 100 µM
> 100 µM
> 100 µM
> 100 µM

====

Task for the reader: assign each of the following compounds its reported TGI.
- System: HOP-62 NSCLC
- TEST_METHOD_NOTES: NCI tumour cell line growth inhibition, 48 h

* COc1ccc(-n2c(=O)n(C)c(=O)n2-c2c(C)c(C)c(C)c(C)c2C)cc1 | > 100 µM
* CC(C)CNc1nc(N=[N+]=[N-])nc(NCC(C)C)n1 | > 10 µM
* CC12C(=O)N(CCN)C(=O)C1C1c3ccccc3C2c2ccccc21 (stereo not given) | > 100 µM

Batch lookup, TGI per entry.
1. NC(=O)CCC(NC(=O)C(F)(F)F)C(=O)O (stereo not given)
2. COc1ccc2[nH]c3c(C)c4cnccc4c(C)c3c2c1
3. Cc1cc(Br)cc(C)c1NC(=O)C(=O)C1C(=O)C(CC2C(=O)c3ccccc3C2=O)C(=O)CC1(C)C (stereo not given)
4. O=C(NC/C(Cl)=C/Cl)Nc1cccc2c1CCCC2

Found:
1: > 100 µM; 2: 2.78 µM; 3: > 100 µM; 4: > 100 µM

====

- Test system: COLO 205 colon
- TEST_METHOD_NOTES: NCI tumour cell line growth inhibition, 48 h
Task for the reader: assign each of the following compounds its reported GI50.

- O=C(/C=C/c1cccc(B(O)O)c1)c1cccc(B(O)O)c1: 1760 nM
- CON: > 100000 nM
- CC(=O)N[C@@H](Cc1ccc(OP(=O)(O)O)cc1)C(=O)N[C@H]1CCC(=O)N2CCC[C@@H](C(=O)NCc3ccc(O)cc3)N2C1=O: > 25000 nM

Consider the additional compound presented here.
Lookup: For the compound CC(=O)OCC(=O)C1(O)C(C)CC2C3C=C(C)C4=Cc5c(cnn5-c5ccccc5)CC4(C)C3C(O)CC21C (centres undefined) , give its reported GI50.
Found: 1720 nM

====

Task for the reader: assign each of the following compounds its reported TGI.
- Tested on: UO-31 renal
- TEST_METHOD_NOTES: NCI tumour cell line growth inhibition, 48 h

• COC(=O)c1cc(C)n(NC(=O)OC(C)(C)C)c1C = > 100 µM
• O=C(/C=C/c1cccc(B(O)O)c1)c1cccc(B(O)O)c1 = 3.36 µM
• CC[O-].CC[O-].O=C([CH-]C(=O)c1ccccc1)c1ccccc1.O=C([CH-]C(=O)c1ccccc1)c1ccccc1.[Ti+4] = > 100 µM
• Cn1c2c(cc(-c3ccccc3)c1=O)COc1ccccc1-2 = 63.3 µM
• COC1=CC(=O)c2ccccc2C1(C)C1=NC(C)(C)CO1 (stereo unspecified) = > 100 µM

Consider the additional compound presented here.
Lookup: For the compound `Cc1cc(=O)[nH]c(CNC(=O)Cc2ccccc2)n1` , give its reported TGI.
Found: > 100 µM

====

Task for the reader: assign each of the following compounds its reported TGI.
- Test system: NCI/ADR-RES ovarian
- TEST_METHOD_NOTES: NCI tumour cell line growth inhibition, 48 h
Give bare numbers, in µM.

Example results:
* Cc1cc2c(C(C)C)c(O)c(O)c(C=O)c2c(O)c1-c1c(C)cc2c(C(C)C)c(O)c(O)c(C=O)c2c1O (tested in a mixture with another compound) | 2.56
* O=c1cc(-c2nc3ccccc3[nH]2)[nH]c2nc(-c3nc4ccccc4[nH]3)cc(-c3ccc(Cl)cc3)c12 | 91.3
* Cc1cc2nc3c4ccccc4n(CCN(C)C)c3nc2cc1C | 12.7

Consider the additional compound presented here.
Lookup: For the compound `O=c1cc(-c2ccccc2Cl)[nH]c2cc3c(cc12)OCO3` , give its reported TGI.
Found: 0.0698

====

- System: SK-MEL-28 melanoma
- TEST_METHOD_NOTES: NCI tumour cell line growth inhibition, 48 h
Task for the reader: assign each of the following compounds its reported TGI.

Example results:
• COc1cc(C2C(C#N)=C(N)Oc3cc4c(cc32)OCO4)cc2c1OCO2 (centres undefined) = > 100 µM
• COc1ccc2c(c1)CC[C@@H]1[C@@H]2CC[C@]2(C)[C@@H](O)/C(=C/c3ccncc3)C[C@@H]12 = 35.5 µM
• FC(F)(F)C1(C(F)(F)F)C2CCC3(CC(F)(F)C(F)(F)S3)C1C2 (centres undefined) = > 100 µM

Batch lookup, TGI per entry.
1. CCOc1ccc2c(c1)NC(=O)C(C1OC(c3ccccc3)=CC1=O)S2 (centres undefined)
2. Cc1cccc(N=C2NC(=O)C(CC(=O)Nc3ccc(Cl)cc3C)S2)c1 (centres undefined)
3. Nc1cccc2nsnc12
4. Cc1cc(Br)cc(C)c1NC(=O)C(=O)C1C(=O)C(CC2C(=O)c3ccccc3C2=O)C(=O)CC1(C)C (centres undefined)

Found:
1: 68.8 µM; 2: > 100 µM; 3: > 100 µM; 4: > 100 µM

Batch lookup, TGI per entry.
1. COc1ccc(NC(=O)O[C@H]2[C@H](O[C@H]3[C@@H](O)COC(O[C@H]4C[C@H]5[C@@H]6CC=C7C[C@@H](O)CC[C@]7(C)[C@H]6CC[C@]5(C)[C@H]4[C@H](C)C(=O)CCC(C)C)[C@@H]3OC(C)=O)OC[C@@H](O)[C@@H]2O)cc1 (some centres undefined)
2. COc1cc(NCc2ccc3n2-c2ccccc2OC3)cc(OC)c1OC
3. CP(C)C.[Ag][I]
4. C=C(C)[C@@H]1CC[C@]2(C)[C@H](C=CC3=C4C[C@@](C)(CO)CC[C@]4(C)CC[C@]32C)[C@@]1(C)CCCN
5. CC[C@H](C)[C@H](NC(=O)C12CC(NC(C)=O)(C1)C2)C(=O)N(C)[C@H](C[C@@H](OC(C)=O)c1nc(C(=O)N[C@@H](Cc2ccccc2)C[C@H](C)C(=O)OC)cs1)C(C)C
6. CC(=O)/C=C/C1=C(c2ccsc2)c2ccccc2CC1
7. CC1(C)S[C@@H]2[C@H](NC(=O)/C=C/c3ccccc3)C(=O)N2[C@H]1C(=O)O

Found:
["0.0127 µM", "> 100 µM", "> 100 µM", "3.25 µM", "> 16.7 µM", "> 100 µM", "> 100 µM"]
